study.system: UniProt:Q86V86
Where a name gives a salt, the structure may show the parent alone.
One threshold, 0.6 nM, splits the recorded Ki values: lower ones are Condition met, equal or higher ones are Condition not met.

molecule | class.name
Cc1cncc(-c2cc3c(cn2)cnn3-c2cnc(C3CC3)c(N3CCC[C@H](N)C3)n2)n1 | Condition met
CC(C)c1cncc(-c2cc3c(cn2)cnn3-c2cccc(N3CCC[C@@H](N)C3)n2)c1 | Condition met
CCn1cc(-c2cc3c(cn2)cnn3-c2cccc(N3CCC(O)CC3)n2)cn1 | Condition not met
OC[C@@H]1CCCN1c1cncc(-c2cc3c(cn2)cnn3-c2cccc(N3CCNCC3)n2)n1 [Compound 280, dihydrochloride] | Condition met
FC(F)Cn1cc(-c2cc3c(cn2)cnn3-c2cccc(N3CCCNCC3)n2)cn1 | Condition not met
Cc1cncc(-c2cc3c(cn2)cnn3-c2cccc(C3CNCCC3O)n2)n1 (centres unmarked) | Condition met
Cc1cncc(-c2cc3c(cn2)cnn3-c2ccc(Cl)c(N3CCC[C@H](N)C3)n2)n1 | Condition met

* * *

study.system: PIM3 (Homo sapiens (Human))
Where a name gives a salt, the structure may show the parent alone.
Overview of reported log10 Ki across a group of molecules:
measured.property: log10 Ki (log10 of the value in nM)

molecule | reported.measurement
CCc1cncc(-c2cc3c(cn2)cnn3-c2cccc(N3CCNCC3)n2)n1 [Compound 149] | -1.32
Cc1cncc(-c2cc3c(cn2)cnn3-c2cnc(C)c(N3CCC[C@H](N)C3)n2)n1 [Compound 228] | -1.33
Cn1cc(-c2cc3c(cn2)cnn3-c2cccc(N3CCNC[C@H](O)C3)n2)cn1 [Compound 231] | -1.49
CCc1cncc(-c2cc3c(cn2)cnn3-c2ccc(Cl)c(N3CCC[C@H](N)C3)n2)c1 [Compound 117] | -1.01
c1cc(N2CCNCC2)nc(-n2ncc3cnc(-c4cncc(C5CC5)n4)cc32)c1 [Compound 165] | -0.76
CC#Cc1cncc(-c2cc3c(cn2)cnn3-c2cccc(N3CCNCC3)n2)n1 [Compound 317] | -1.59
C=Cc1cncc(-c2cc3c(cn2)cnn3-c2cccc(N3CCNCC3)n2)n1 [Compound 274, dihydrochloride] | -1.01
CCn1cc(-c2cc3c(cn2)cnn3-c2cccc(N3CC[C@@H](O)C3)n2)cn1 [Compound 128] | 0.64
Cn1cc(-c2cc3c(cn2)cnn3-c2cn(C)c(=O)c(N3CCC[C@@H](N)C3)n2)cn1 [Compound 243] | 0.94
COc1ccc(-n2ncc3cnc(-c4cnn(CC(F)(F)F)c4)cc32)nc1N1CCNC[C@@H](O)C1 [Compound 234] | -0.63
FC1CCNCC1c1cccc(-n2ncc3cnc(-c4cnn(CC(F)(F)F)c4)cc32)n1 (centres unmarked) [Compound 306] | -0.90
c1ccc(-n2ncc3cnc(-c4cncc(NC5CNC5)n4)cc32)nc1 [Compound 308] | -0.40
OCC#Cc1cncc(-c2cc3c(cn2)cnn3-c2cccc(N3CCNCC3)n2)n1 [Compound 300] | -1.49
FC(F)(F)Cn1cc(-c2cc3c(cn2)cnn3-c2cccc(N3CCCNCC3)n2)cn1 [Compound 154] | -0.76
Cc1cncc(-c2cc3c(cn2)cnn3-c2cccc(N3CCC(O)C(O)C3)n2)n1 (centres unmarked) [Compound 312] | -0.32
CCc1cncc(-c2cc3c(cn2)cnn3-c2cccc(N3CCCNCC3)n2)n1 [Compound 150] | -1.72
CO[C@@]1(C)CNCCN(c2cccc(-n3ncc4cnc(-c5cnn(CC(F)(F)F)c5)cc43)n2)C1 [Compound 261] | 0.44

* * *

A short record of log10 of Ki observed with PIM3 (Homo sapiens (Human), UniProt Q86V86) follows.
measured.property: log10 of Ki (log10 of the value in pM)

molecule | log10 of Ki
Cc1cc(-c2cc3c(cn2)cnn3-c2cccc(N3CCNCC3)n2)sn1 | 2.49
Cc1cncc(-c2cc3c(cnn3-c3cccc(N4CCNCC4)n3)nn2)n1 | 1.70
CCn1cc(-c2cc3c(cn2)cnn3-c2cccc(N3CC[C@H](N)C3)n2)cn1 | 2.92
Cn1cc(-c2cc3c(cn2)cnn3-c2cccc(N3CC(O)C3)n2)cn1 | 3.25
Cn1ncc(-c2cc3c(cn2)cnn3-c2ccccc2F)c1C1=CCNCC1 | 5.22
COc1ccc(-n2ncc3cnc(-c4cncc(C)n4)cc32)nc1N1CCNCC(O)C1 (centres unmarked) | 1.97
CCn1cc(-c2cc3c(cn2)cnn3-c2cccc(N3CC[C@@H](N)C3)n2)cn1 | 2.79
Cc1ccc(-n2ncc3cnc(-c4cnn(CC(F)(F)F)c4)cc32)nc1N1CCNC[C@@H](O)C1 (single isomer, unassigned) | 2.10

* * *

study.system: PIM1 (Homo sapiens (Human), UniProt P11309)
Sequence (P11309 whole entry): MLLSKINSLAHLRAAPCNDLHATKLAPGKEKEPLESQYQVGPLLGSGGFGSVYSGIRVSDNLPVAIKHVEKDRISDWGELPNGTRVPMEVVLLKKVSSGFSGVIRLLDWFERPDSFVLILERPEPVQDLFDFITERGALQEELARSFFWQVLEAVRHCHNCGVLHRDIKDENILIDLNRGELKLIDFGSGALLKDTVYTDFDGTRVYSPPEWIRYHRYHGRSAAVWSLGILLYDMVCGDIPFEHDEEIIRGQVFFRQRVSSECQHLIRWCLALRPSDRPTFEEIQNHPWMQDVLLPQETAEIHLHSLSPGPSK
assay.name: biochemical
Assay type: biochemical
condition.parameters: 10 μM ATP, 90 min, room temperature; read-out: PIM1 LC3K (KI)
Counter-ions that a name gives are not always drawn.
measured.property: Ki

compound | measured.property | reported.measurement
COC1(c2cccc(-n3ncc4cnc(-c5cncc(C)n5)cc43)n2)CCCNC1 (stereo not drawn) | Ki | 0.256 nM
Cc1cncc(-c2cc3c(cn2)cnn3-c2cccc(C3CNCCC3(F)F)n2)n1 (single isomer, unassigned) [Compound 272] | Ki | 0.067 nM
c1cc(N2CCCNCC2)nc(-n2ncc3cnc(-c4cncc(C5CC5)c4)cc32)c1 | Ki | 0.038 nM
COc1ccc(-n2ncc3cnc(-c4cnn(CC(F)(F)F)c4)cc32)nc1N1CCNC[C@@H](O)C1 | Ki | 0.107 nM
Cc1cncc(-c2cc3c(cn2)cnn3-c2cccc(N3CC4(CCNC4)C3)n2)n1 | Ki | 1.17 nM
C=Cc1cncc(-c2cc3c(cn2)cnn3-c2cccc(N3CCNCC3)n2)n1 [Compound 274, dihydrochloride] | Ki | 0.133 nM

* * *

pKi: −log10 of the molar value. Where a name gives a salt, the structure may show the parent alone.
A short record of pKi observed with PIM3 (Homo sapiens (Human), UniProt Q86V86) follows.
measured.property: pKi

molecule | study.system | reported.measurement
OCCOc1cncc(-c2cc3c(cn2)cnn3-c2cccc(N3CCNCC3)n2)n1 [Compound 278, dihydrochloride] | PIM3 (Homo sapiens (Human), UniProt Q86V86) | 9.98
Cc1cncc(-c2cc3c(cn2)cnn3-c2cnc(Cl)c(N3CCC[C@H](N)C3)n2)n1 | PIM3 (Homo sapiens (Human), UniProt Q86V86) | 9.05
Cn1cc(-c2cc3c(cn2)cnn3-c2cccc(N3CCCNCC3)n2)cn1 | PIM3 (Homo sapiens (Human), UniProt Q86V86) | 10.01
NCCOc1cncc(-c2cc3c(cn2)cnn3-c2cccc(N3CCNCC3)n2)n1 | PIM3 (Homo sapiens (Human), UniProt Q86V86) | 10.04
c1cc(N2CCNCC2)nc(-n2ncc3cnc(-c4cncs4)cc32)c1 | PIM3 (Homo sapiens (Human), UniProt Q86V86) | 9.55
c1cc(N2CCCNCC2)nc(-n2ncc3cnc(-c4cnn(CC5COC5)c4)cc32)c1 | PIM3 (Homo sapiens (Human), UniProt Q86V86) | 6.55
Cc1cncc(-c2cc3c(cn2)cnn3-c2cccc(N3CCC[C@H](O)C3)n2)n1 | PIM3 (Homo sapiens (Human), UniProt Q86V86) | 9.61
CCn1cc(-c2cc3c(cn2)cnn3-c2cccc(N3CCNCC3)n2)cn1 | PIM3 (Homo sapiens (Human), UniProt Q86V86) | 9.17
Cc1cncc(-c2cc3c(cn2)cnn3-c2cccc(C(=O)N3CCC[C@@H](N)C3)n2)n1 | PIM3 (Homo sapiens (Human), UniProt Q86V86) | 7.81
Cc1cncc(-c2cc3c(cn2)cnn3-c2cccc(C3=CCNCC3)n2)n1 | PIM3 (Homo sapiens (Human), UniProt Q86V86) | 8.97
NCC1CN(c2cccc(-n3ncc4cnc(-c5cnn(CC(F)(F)F)c5)cc43)n2)C1 | PIM3 (Homo sapiens (Human), UniProt Q86V86) | 8.74
Cc1nc(-c2cc3c(cn2)cnn3-c2cccc(N3CCC[C@H](N)C3)n2)cnc1N | PIM3 (Homo sapiens (Human), UniProt Q86V86) | 10.96
FC(F)c1cncc(-c2cc3c(cn2)cnn3-c2cccc(N3CCNCC3)n2)n1 [Compound 279, trifluoroacetate] | PIM3 (Homo sapiens (Human), UniProt Q86V86) | 9.88
FC(F)(F)Cn1cc(-c2cc3c(cn2)cnn3-c2cccc(N3CC4(CCCCN4)C3)n2)cn1 | PIM3 (Homo sapiens (Human), UniProt Q86V86) | 7.57
CCn1cc(-c2cc3c(cn2)cnn3-c2cccc(N3CCN[C@@H](C)C3)n2)cn1 | PIM3 (Homo sapiens (Human), UniProt Q86V86) | 9.46
Cc1cncc(-c2cc3c(cn2)cnn3-c2cccc(N3CCC(N)CC3)n2)n1 | PIM3 (Homo sapiens (Human), UniProt Q86V86) | 9.90
c1cc(N2CCNCC2)nc(-n2ncc3cnc(-c4cncc(N5CCC5)n4)cc32)c1 | PIM3 (Homo sapiens (Human), UniProt Q86V86) | 10.60
CCn1cc(-c2cc3c(cn2)cnn3-c2cccc(N3CCC(N)CC3)n2)cn1 | PIM3 (Homo sapiens (Human), UniProt Q86V86) | 9.06
Cc1cncc(-c2cc3c(cn2)cnn3-c2cccc(C(=O)N3CCC[C@H](N)C3)n2)n1 | PIM3 (Homo sapiens (Human), UniProt Q86V86) | 7.70
OC1CNCCN(c2cccc(-n3ncc4cnc(-c5cncc(C6COC6)c5)cc43)n2)C1 (centres unmarked) | PIM3 (Homo sapiens (Human), UniProt Q86V86) | 9.39
Cc1cncc(-c2cc3c(cn2)cnn3-c2cccc(N3CCNC[C@H]3C)n2)n1 | PIM3 (Homo sapiens (Human), UniProt Q86V86) | 10.48
Cc1cncc(-c2cc3c(cn2)cnn3-c2cccc(NC3CCNCC3)n2)n1 | PIM3 (Homo sapiens (Human), UniProt Q86V86) | 10.64
Cc1cncc(-c2cc3c(cn2)cnn3-c2cn(C)c(=O)c(N3CCC[C@H](N)C3)n2)n1 | PIM3 (Homo sapiens (Human), UniProt Q86V86) | 9.12
CCn1cc(-c2cc3c(cn2)cnn3-c2cccc(N3CCC[C@@H](N)C3)n2)cn1 | PIM3 (Homo sapiens (Human), UniProt Q86V86) | 9.33
Cc1cncc(-c2cc3c(cn2)cnn3-c2cccc(N3CCCC4(CN(C=O)C4)C3)n2)n1 | PIM3 (Homo sapiens (Human), UniProt Q86V86) | 8.47
O[C@@H]1CNCCN(c2cccc(-n3ncc4cnc(-c5cnn(CC(F)(F)F)c5)cc43)n2)C1 | PIM3 (Homo sapiens (Human), UniProt Q86V86) | 9.21
OC1CNCCN(c2cccc(-n3ncc4cnc(-c5cncc(C6CC6)c5)cc43)n2)C1 (centres unmarked) | PIM3 (Homo sapiens (Human), UniProt Q86V86) | 9.51
FC(F)n1cc(-c2cc3c(cn2)cnn3-c2cccc(N3CCCNCC3)n2)cn1 | PIM3 (Homo sapiens (Human), UniProt Q86V86) | 8.96
Cc1cncc(-c2cc3c(cn2)cnn3-c2cccc(N3C[C@@H](N)C[C@H](F)C3)n2)n1 | PIM3 (Homo sapiens (Human), UniProt Q86V86) | 9.68
NC1CN(c2cccc(-n3ncc4cnc(-c5cnn(CC(F)(F)F)c5)cc43)n2)C1 | PIM3 (Homo sapiens (Human), UniProt Q86V86) | 8.94
Cc1cncc(-c2cc3c(cn2)cnn3-c2cccc(N3CCCNC3=O)n2)n1 | PIM3 (Homo sapiens (Human), UniProt Q86V86) | 8.50
Cc1cncc(-c2cc3c(cn2)cnn3-c2ccc(CO)c(N3CCC[C@H](N)C3)n2)n1 | PIM3 (Homo sapiens (Human), UniProt Q86V86) | 10.27
